Data provenance is PubChem BioAssay.

methodDescription: AGP1-GFP expression modulators, hit retest, confirmation, cell-based, flow cytometry, S. cerevisiae, cherry picks (AID 2273);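 note: median GFP channel fluorescence over the whole cell population gate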
measurementConditions: S. cerevisiae AGP1-GFP strain, 3 h, at 10 µM
measuredAttribute: GFP response, % of DMSO (%)
Answer in %, number only, no unit symbol.

Qu. State, in one line, measured GFP response, % of DMSO of `Cc1c(/C=N/Nc2ccc(C(=O)O)cc2)c2ccccc2n1C`
Ans. 95.5

Qu. State, in one line, measured GFP response, % of DMSO of `O=C(CCc1ccccc1)NNC(=S)NC(=O)c1ccccc1`
Ans. 100

Qu. State, in one line, measured GFP response, % of DMSO of `Cc1ccc(Nc2c(-c3ccccn3)nc3ccc(C)cn23)cc1`
Ans. 82.9

----------
methodDescription: LAP4-GFP expression modulators in yeast, confirmation, cell-based, cherry picks, flow cytometry, mother/daughter gates (AID 2271);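 note: ratio of sample to DMSO plate mean so 100% equals DMSO level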
measurementConditions: S. cerevisiae LAP4-GFP strain, 3 h, measured here: mother cell gate response, at 10 µM, stronger effect = higher value, 100 means same as DMSO control
Each record here notes measured GFP response relative to DMSO.
Answer in %, number only, no unit symbol.

Example entries begin here.
> print(dat)
                                   molecule              measuredattribute  uom  valueobserved
1  CCCCNc1c(-c2ccc(SC(C)CC)cc2)nc2ccccn12 (configuration not stated)  GFP response relative to DMSO    %            124
2  COc1cc(OC)cc(C(=O)N2CCN(c3ccccc3F)CC2)c1  GFP response relative to DMSO    %           98.3
3  COc1ccccc1OC(C)C(=O)Nc1ccccc1C(=O)NCC1CCCO1 (configuration not stated)  GFP response relative to DMSO    %           97.5
4  CCOC(=O)C(C(=O)OCC)C(C(=O)OCC)N1CCOCC1 (configuration not stated)  GFP response relative to DMSO    %            165
5  CCNC(=O)/C(C#N)=C/c1c(N2CC(C)OC(C)C2)nc2ccccn2c1=O (configuration not stated)  GFP response relative to DMSO    %           99.4

Qu. State, in one line, measured GFP response relative to DMSO of Cc1ccc(N2C(=O)c3ccccc3NC2c2ccccc2O)cc1 (configuration not stated)
Ans. 96.1

----------
methodDescription: modulators of CIT2-GFP expression in yeast, confirmation, S. cerevisiae, GFP fusion, cherry picks, mother/daughter gates (AID 2274)
measurementConditions: S. cerevisiae CIT2-GFP strain, flow cytometry, 3 h; at 10 µM; stronger effect = higher value
Each record here notes measured GFP response, % of DMSO.
Answer in %, number only, no unit symbol.

Example entries begin here.
> print(dat)
                                   compound        measuredattribute  valueobserved
1  O=C(Nc1ccccc1C(F)(F)F)c1cc(-c2ccc(O)cc2)on1  GFP response, % of DMSO            101
2  Cc1ccc(CC2CC(=O)N(Cc3ccco3)C2=O)cc1 (centres undefined)  GFP response, % of DMSO            107
3                COCCNC(=O)c1ccc(Cl)c(Cl)c1  GFP response, % of DMSO            105
4              Cc1cccc(CN2CCSc3sccc3C2=O)c1  GFP response, % of DMSO            112
5  COc1cc(C(O)P(=O)(OCC(C)C)OCC(C)C)cc(OC)c1OC (centres undefined)  GFP response, % of DMSO            101
6         O=C(O)Cc1sc(Nc2ccccc2)nc1-c1cccs1  GFP response, % of DMSO            104
7  O=C1C(=O)N(Cc2ccccc2)C(c2cccc(O)c2)/C1=C(\O)c1ccc2c(c1)OCCO2 (centres undefined)  GFP response, % of DMSO            108
8  CC(C)Oc1ccc(C(=O)/C=C2/C(=O)Nc3ccccc32)cc1  GFP response, % of DMSO            110

Qu. State, in one line, measured GFP response, % of DMSO of `CC(C)c1ccc(C(=O)N/N=C/c2cccc(Cl)c2Cl)cc1`
Ans. 87.2

Qu. State, in one line, measured GFP response, % of DMSO of `N/C(=N\OC(=O)c1cccc(Br)c1)c1ccccc1`
Ans. 140

Qu. State, in one line, measured GFP response, % of DMSO of CCCc1[nH]nc2c1C(c1ccc(Br)s1)C(C#N)=C(N)O2 (centres undefined)
Ans. 101

Qu. State, in one line, measured GFP response, % of DMSO of `CCCOc1ccc(C(=O)NNC(=S)NC(=O)c2ccco2)cc1`
Ans. 134

Qu. State, in one line, measured GFP response, % of DMSO of `CCOc1cc(/C=C2\N=C(C)OC2=O)cc(Cl)c1OCC(=O)OC`
Ans. 93

Qu. State, in one line, measured GFP response, % of DMSO of `Cc1ccc(C(=O)c2nocc2C(=O)c2cccs2)cc1`
Ans. 80.6

Qu. State, in one line, measured GFP response, % of DMSO of `CSc1nc2ccc(S(=O)(=O)N3CCCC3)cc2s1`
Ans. 78.2
